- Tested on: HCT-15 colon
- procedure-text: NCI tumour cell line growth inhibition, 48 h
measure-name: TGI

Some molecules with recorded TGI:
INSERT INTO measurements (molecule, measured_on, result) VALUES
  ('CCOC(=O)c1[nH]c2nc(SC)nc(Nc3ccccc3Cl)c2c1N', 'HCT-15 colon', '> 100 µM'),
  ('O=C(CCOS(=O)(=O)CF)N1CCN(C(=O)CCOS(=O)(=O)CF)CC1', 'HCT-15 colon', '> 100 µM'),
  ('Nc1c(N2CCCCC2)c(=O)nc2[nH]/c(=C\c3ccccc3)c(=O)n12', 'HCT-15 colon', '> 100 µM'),
  ('Cc1ccc(-c2cc(-c3c(C)nn(C)c(=O)c3N)[nH]n2)cc1', 'HCT-15 colon', '> 100 µM'),
  ('O=C(Nc1nc(-c2ccc(Cl)cc2)nc2c1sc(=S)n2-c1ccccc1)C(F)(F)F', 'HCT-15 colon', '> 100 µM'),
  ('CC1=C2[C@H](c3ccccc3)C3C=CC2(c2ccccc23)N(C(=O)C(c2ccccc2)c2ccccc2)C1=O (stereo partly drawn)', 'HCT-15 colon', '> 100 µM');

Give one value of TGI per listed molecule.
1. Cc1cc2c(cc1C)C(=O)/C(=N/Nc1ccc(F)cc1)CCO2
2. COc1ccc(C[C@H](N)C(=O)N2C[C@@H](CO)C[C@@H](n3cnc4c(N(C)C)ncnc43)C2)cc1

> 100 µM
> 100 µM

* * *

- Tested on: 786-0 renal
- procedure-text: NCI tumour cell line growth inhibition, 48 h
measure-name: TGI (µM)
Give bare numbers, in µM.

INSERT INTO results (molecule, measure_name, unit_spec, result) VALUES
  ('C/C=C(/C)C(=O)OC1C=C(CO)C(=O)C(OC(=O)C(C)(O)C(C)Cl)C1C(C)C (centres undefined)', 'TGI', 'µM', 3.12);

Short answer please: TGI, 786-0 renal, entry `O=C(Nc1cccc(Cl)c1)c1cc(N=Nc2ccc([N+](=O)[O-])cc2Cl)ccc1O`
8.27

* * *

- Test system: EKVX NSCLC
- procedure-text: NCI tumour cell line growth inhibition, 48 h
Consider the following compounds; for each one, report its TGI.

Some compounds with recorded TGI:
INSERT INTO results (compound, measure_name, result) VALUES
  ('NC(=Nc1nc(-c2ccccn2)cc2ccccc12)c1ccccn1', 'TGI', '> 17.2 µM'),
  ('COc1cc2ncn(-c3cc(OCc4ccccc4C(F)(F)F)c(C(C)=O)s3)c2cc1OC', 'TGI', '> 25 µM');

Give one value of TGI per listed compound.
1. COC(=O)c1c(C(=O)OC)c2c3ccccc3n(C)c2c2c1c1ccccc1n2C
2. COc1cc2c(cc1OC)c1c(OC)c(OC)cc3c1c1c2sc(=S)n1CC3
3. COc1ccc(N2C(=O)/C(=C\c3cccc(Oc4ccccc4)c3)SC2c2ccccc2)cc1 (stereo not drawn)
4. O=C1CN(c2ccc(Cl)cc2)C(=O)CN1NCNN1CC(=O)N(c2ccc(Cl)cc2)CC1=O
5. O=C(Nc1nc(C23CC4CC(CC(C4)C2)C3)cs1)c1cc2c(ccc3ccccc32)oc1=O

["> 100 µM", "> 100 µM", "> 100 µM", "> 100 µM", "> 100 µM"]

Which measured TGI value corresponds to `CCOC(=O)NC(=O)c1cn(CCN2CCNCC2)c(=O)[nH]c1=O` ?
> 100 µM
